Test system: HL-60(TB) leukemia
test details: NCI-60 one-dose screen, 48 h
cond: 10 µM unless noted
This is part of a sample that, as a whole, favours compounds with a hit. Of some 83,000 tested, about 20% had one in any assay. The source made the active and inactive calls. How the source made its calls: active means growth percent below 10; inactive means the rest.
Pick one and only one: active, inactive

Record excerpt, results attached:
| compound | class name |
| --- | --- |
| Nc1ccc(-c2nc3cc(F)ccc3[se]2)cc1F | inactive |
| O=C1C2C(C(=O)[N]1[Hg][c]1cccs1)C1(Cl)C(Cl)=C(Cl)C2(Cl)C1(Cl)Cl (stereo unspecified) | active |
| O=C(Nc1ccncc1F)c1cn(CC2CC2)c2ccccc12 | inactive |
| COc1ccc(/C=C\c2cc(OC)c(OC)c(OC)c2)c(NS(=O)(=O)c2ccc(Cl)cc2)c1O | active |
| COC(=O)[C@@H](C)C[C@H](Cc1ccccc1)NC(=O)c1nc([C@@H](C[C@H](C(C)C)N(C)C(=O)[C@@H](NC(=O)[C@H]2CCCN2C)C(C)C)OC(C)=O)sc1C | active |

# outcome recorded in this test, key = `CC(=O)O[C@H](C[C@H](C(C)C)N(C)C(=O)[C@@H](NC(=O)[C@H]1CCCCN1C)C(C)C)c1nc(C(=O)N[C@@H](Cc2ccccc2)C[C@H](C)C(=O)O)c(C(C)C)s1`
active

Just curious, what result did `COC(=O)[C@@H](C)C[C@H](Cc1ccccc1)NC(=O)c1csc([C@@H](C[C@H](C(C)C)N(C)C(=O)[C@@H](NC(=O)[C@H]2CCCN2C)C2CC2)OC(C)=O)n1` get here?
active

State the result this test recorded for `CCOC(=S)S[C@H]1C[C@@H]2[C@H](CC[C@]3(C)C(=O)CC[C@@H]23)[C@@]2(C)CCC(=O)C=C12` .
inactive

Assay result, entry `COC(=O)[C@@H](C)C[C@H](Cc1ccccc1)NC(=O)c1csc([C@@H](C[C@H](C(C)C)N(C)C(=O)[C@@H](NC(=O)[C@H]2CCCCN2C)C(C(F)(F)F)C(F)(F)F)OC(C)=O)n1` — outcome?
active

Call for entry CCCCCCCCC(CO)NCCc1ccccc1 (stereo unspecified) :
inactive

Lab log entry: CC(=O)O[C@H]1C(=O)[C@@]2(C)[C@H]([C@H](OC(=O)c3ccccc3)[C@]3(O)C[C@H](OC(=O)[C@H](OC(=O)OCC4COC(C)(C)O4)[C@@H](NC(=O)c4ccccc4)c4ccccc4)C(C)=C1C3(C)C)[C@]1(OC(C)=O)CO[C@@H]1C[C@@H]2O (stereo partly specified) — outcome as called in the assay?
inactive

* * *

Test system: NCI-H322M lung
test details: NCI-60 one-dose screen, 48 h
cond: 10 µM unless noted
About 83,000 compounds went through this panel and 20% of them were active in at least one assay; those are over-represented in the sample as a whole. Activity calls are given as the source filed them. Rule for the calls: active = growth percent below 10; inactive = the rest.
Classes to choose from: 1 (yes) for active, 0 (no) for inactive

| smiles input | class name |
| --- | --- |
| COc1ccc2c(c1)c(-c1nc(-c3c[nH]c4ncccc34)cs1)cn2CCN1CCOCC1 | 0 (no) |
| O=NN1CCCc2cccc(O)c21 | 0 (no) |
| Cn1cc(-c2csc(-c3cn(CCN4CCOCC4)c4ccccc34)n2)c2cccnc21 | 0 (no) |
| COc1cc2ncnc(Nc3ccc(F)c(Cl)c3)c2cc1OCC(=O)N1CCN(C)CC1 | 0 (no) |
| O=C1C(=Cc2cn(Cc3ccccc3)c3ccccc23)C(=O)N(Cc2ccccc2)C(=O)N1Cc1ccccc1 | 0 (no) |

What outcome does the record of this test show for `CC1=C(O)[C@@](C)(CCCCC[C@H](C)CCCCc2ccc(O)cc2)OOC1=O` ?
0 (no)

What call does the record list for `O=C(Nc1ccc(Br)cc1)c1cc(Br)cc(Br)c1O` ?
0 (no)

* * *

System: SN12C renal
test details: NCI-60 one-dose screen, 48 h (100 = growth as untreated, 0 = no growth, -100 = all killed)
cond: 10 µM unless noted
Compounds without any hit were thinned out: in the full panel of roughly 83,000, 20% have a hit.
Listed below: growth values for each entry.
Enter your answer as a number in %; do not include the unit.

Recorded growth for `Fc1cccc(NCOOC2(OOCNc3cccc(F)c3)CCCCC2)c1` , please?
103

Dear colleague, I am looking for the recorded growth of the following compound: `CN(C)CCCOc1ccc2c(c1)c(C(=O)C(=O)NCCO)cn2Cc1ccccc1`
104

What value of growth has been reported for the following compound? `ClCCN(CCCl)c1ccc(OCc2ccccc2)cc1`
30.8

Query (compound): `C[C@]12CCc3sc(NCCc4ccccc4)nc3C1=CC[C@@H]1[C@@H]2CC[C@]2(C)C(=O)CC[C@@H]12` ; field requested: growth
68.5

Requested field: growth. Item: `COC(=O)[C@@]1(O)C[C@H]2O[C@]1(C)n1c3ccccc3c3c4c(c5c6ccccc6n2c5c31)C(=O)NC4`
-47.2

* * *

# key: entry, value: growth
System: MDA-MB-435 melanoma
test details: NCI-60 one-dose screen, 48 h (100 = growth as untreated, 0 = no growth, -100 = all killed)
cond: 10 µM unless noted
The panel holds about 83,000 compounds, 20% with a hit somewhere; the sample as a whole holds those more often. The source made the active and inactive calls. Rule for the calls: active = growth percent below 10; inactive = the rest.

Known growth results, listed for orientation:
| compound | growth |
| --- | --- |
| NC(N)=N/N=C\c1c[nH]c2ccc(Br)cc12 | 98.1% (inactive) |
| COc1cc(/C=C\c2cc(OC)c(OC)c(OC)c2)cc(N/C=C\C(=O)c2cc(OC)c(OC)c(OC)c2)c1OC | -37.3% (active) |
| COc1ccc(/C=C/c2cc(OC)c(OC)c(OC)c2)cc1NC(=O)/C=C/c1ccc(F)cc1 | -41.4% (active) |
| O=C1Nc2ccccc2C2c3cccn3-c3ccccc3CN12 (stereo not given) | -15% (active) |

Here is the next item to consider.
Checklist item: growth tested on MDA-MB-435 melanoma, entry N#Cc1c(Br)n(C2OC(CO)C(O)C2O)c2ncnc(N)c12 (stereo not given) , value?
51.4% (inactive)

* * *

Tested on: SR leukemia
test details: NCI-60 one-dose screen, 48 h (100 = growth as untreated, 0 = no growth, -100 = all killed)
cond: 10 µM unless noted
Compounds without any hit were thinned out: in the full panel of roughly 83,000, 20% have a hit.
Label Y when growth >= 70%; otherwise N.

# example entries with known answers
| molecule | class name |
| --- | --- |
| Brc1ccc2c(c1)c(-c1nc(-c3c[nH]c4ncccc34)cs1)cn2CCN1CCOCC1 | N |
| COC(=O)[C@H](Cc1ccccc1)NNC(=O)c1csc([C@@H](C[C@H](C(C)C)N(C)C(=O)[C@@H](NC(=O)[C@H]2CCCCN2C)C2CC2)OC(C)=O)n1 | N |
| NC1CC2CCCCC2CC1(O)c1ccccc1 (stereo not drawn) | Y |
| C/C(=C\c1ccn(-c2ccc(N)cc2C(F)(F)F)n1)[C@@H]1C[C@@H]2O[C@]2(C)CCC[C@H](C)[C@H](O)[C@@H](C)C(=O)C(C)(C)[C@@H](O)CC(=O)O1 | N |
| CN(C)C(=O)Oc1ccccc1-c1ccccc1 | Y |
| C[S+]1C=Cc2ccccc2C1c1ccc(Cl)cc1 (stereo not drawn) | Y |

Tell me whether growth is at least 70% here: `CC(C)=CCC/C(C)=C/C=N\N=C(/N)N[N+](=O)[O-]`
Y

Decide: is the reported value of growth for CC12CCC3C(CCC4=CC(=O)CCC43CF)C1CCC2=O (stereo not drawn) equal to or greater than 70%?
Y

hey, is growth for this one >= 70%? `ClCCN(CCCl)Cc1ccc(Nc2ccnc3cc(Cl)ccc23)cc1`
N

Check this molecule for growth at or above 70%: `COC(=O)N[C@H]1CCc2c(Br)c(OC)c(OC)c(OC)c2-c2ccc(SC)c(=O)cc21`
N

Item `COP(=S)(N1CC1)N1CC1` with growth of 70% or above?
Y

Does the reported growth for `COC(=O)CC[C@H](Cc1ccccc1)NC(=O)c1csc([C@@H](C[C@H](C(C)C)N(C)C(=O)[C@@H](NC(=O)[C@H]2CCCCN2C)C(C)C)OC(C)=O)n1` fall at or above the 70% mark?
N

* * *

In this section, each of the molecules is paired with its reported growth.
Tested on: NCI-H23 lung
test details: NCI-60 one-dose screen, 48 h (100 = growth as untreated, 0 = no growth, -100 = all killed)
cond: 10 µM unless noted
Protocol: Growth inhibition of the NCI-H23 human Non-Small Cell Lung tumor cell line is measured as a screen for anti-cancer activity. Cells are grown in 96 well plates and exposed to the test compound for 48 hours. Compounds are tested at a single concentration, which is 10^-5 M for most compounds. The reported endpoint is percent growth (GI% or GIPRCNT), where numbers from 0 - 100% represent growth inhibition, and numbers from -100% - 0 represent cell death. […]
This is part of a sample that, as a whole, favours compounds with a hit. Of some 83,000 tested, about 20% had one in any assay.
The response must be a number in % with no trailing unit.

Study these solved cases before continuing.
| molecule | unit tag | growth |
| --- | --- | --- |
| COC(=O)[C@@]1(C)CC[C@]2(C)CC[C@]3(C)C4=CC=C5C(=CC(=O)C(O)=C5C)[C@]4(C)CC[C@@]3(C)[C@@H]2C1 | % | -72.6 |
| C[C@@H]1CCC2[C@@H](C)[C@H](OC(=O)CCC(=O)NCCNC(=O)Cc3cc(=O)oc4cc(N(C)C)ccc34)O[C@@H]3O[C@]4(C)CC[C@@H]1C23OO4 (stereo partly specified) | % | 21.5 |

Query (molecule): `CC(C)CCC1(CCCl)C(=O)NC(=O)NC1=O` ; field requested: growth
99.6

May I ask what growth has been recorded for `COc1ccc2nc(NC(=O)COc3cc(/C=C\c4cc(OC)c(OC)c(OC)c4)ccc3OC)sc2c1` ?
32.1

Which measured growth value corresponds to `Clc1cccc(N2COOC3(OOC2)C2CC4CC(C2)CC3C4)c1` ?
49

Entry O=C(O)C(O)C(O)C1[O][Sb]([c]2ccc([N+](=O)[O-])cc2)[O]C1CO (stereo unspecified) has what growth?
101

Tell me the measured growth of `COC(=O)[C@]12CCC(C)(C)C[C@H]1[C@H]1C(=O)C[C@@H]3[C@@]4(C)C[C@@]5(CC(C)(C)[C@@H]4CC[C@@]3(C)[C@]1(C)CC2)OO[C@@](C)(C(F)(F)F)O5` , please.
89

Given C[S+]1C=Cc2ccccc2C1c1ccc(Cl)cc1 (stereo unspecified) , state its recorded growth.
83.7

Quick check: growth of `CC1(C)N=C(N)N=C(N)N1c1ccc(OCCCNC(=O)Nc2ccc(S(=O)(=O)F)cc2)c(Cl)c1` ?
27.3

Would you mind telling me what growth value was observed for `COC(=O)[C@@H](C)C[C@H](Cc1ccc(F)cc1)NC(=O)c1csc([C@@H](C[C@H](C(C)C)N(C)C(=O)[C@@H](NC(=O)[C@H]2CCCCN2C)C(C)C)OC(C)=O)n1` ?
35.2

I would be grateful if you could share the reported growth for `CC(=O)O[C@H](C[C@H](C(C)C)N(C)C(=O)[C@@H](NC(=O)[C@H]1CCCCN1C)C(C)C)c1cccc(C(=O)N[C@@H](Cc2ccccc2)C[C@H](C)C(=O)O)n1` .
32.6

Any idea what its growth is? The molecule is `CC1(C)N=C(N)N=C(N)N1c1ccc(CCC(=O)Nc2ccc(S(=O)(=O)F)cc2)c(Cl)c1`
29.9

Which growth is listed for `Cc1cc(C)c(CBr)c(C)c1` ?
100

What does the record list as growth for `CC[C@H](C)[C@H](NC(=O)NC(C)(C)C)C(=O)N(C)[C@H](C[C@@H](OC(C)=O)c1nc(C(=O)N[C@@H](Cc2ccccc2)C[C@H](C)C(=O)OC)cs1)C(C)C` ?
24.1

Using the record for O=C(Nc1ccc([As]=[As]c2ccc(NC(=O)c3ccccc3)cc2)cc1)c1ccccc1 (stereo unspecified) , report its growth.
-71.3

Look up growth for this molecule: `CN1C(=O)C(=Cc2cn(CCCCCCn3c4ccccc4c(=O)c4ccccc43)c3ccccc23)C(=O)N(C)C1=O`
79.9

Can you look up the measured growth of `CCN1C(=O)C(=C/C=C/c2ccccc2)C(=O)N(CC)C1=O` for me?
95.5

Look at this molecule and give its reported growth. `CC1(C)[C@H](O)[C@H](F)C[C@@]2(C)Oc3ccc(C(=O)Nc4ccc5c(c4)NC(=O)C54CCN(CCCCC#N)CC4)cc3C[C@H]12`
55.4

# query: growth of entry `C=C(C)[C@@]12OC3(/C=C/C=C/CCCCC)O[C@@H]1[C@@H]1[C@@H]4O[C@]4(CO)[C@@H](O)[C@]4(O)C(=O)C(C)=C[C@H]4[C@@]1(O3)[C@H](C)[C@H]2OC(=O)c1ccccc1`
46.3

Param item = CCN(CC)c1ccc2c(c1)OC(N)=C(C#N)C2c1cc(OC)c2c(c1)OCO2 (stereo unspecified) ; retrieve measured growth.
17.8

Bench note: what growth did `COc1ccc(/C=C\c2cc(OC)c(OC)c(OC)c2)c(NS(=O)(=O)c2ccc(C)cc2)c1O` show?
23.2
